target.entity: UniProt P10635
Sequence (P10635 whole entry): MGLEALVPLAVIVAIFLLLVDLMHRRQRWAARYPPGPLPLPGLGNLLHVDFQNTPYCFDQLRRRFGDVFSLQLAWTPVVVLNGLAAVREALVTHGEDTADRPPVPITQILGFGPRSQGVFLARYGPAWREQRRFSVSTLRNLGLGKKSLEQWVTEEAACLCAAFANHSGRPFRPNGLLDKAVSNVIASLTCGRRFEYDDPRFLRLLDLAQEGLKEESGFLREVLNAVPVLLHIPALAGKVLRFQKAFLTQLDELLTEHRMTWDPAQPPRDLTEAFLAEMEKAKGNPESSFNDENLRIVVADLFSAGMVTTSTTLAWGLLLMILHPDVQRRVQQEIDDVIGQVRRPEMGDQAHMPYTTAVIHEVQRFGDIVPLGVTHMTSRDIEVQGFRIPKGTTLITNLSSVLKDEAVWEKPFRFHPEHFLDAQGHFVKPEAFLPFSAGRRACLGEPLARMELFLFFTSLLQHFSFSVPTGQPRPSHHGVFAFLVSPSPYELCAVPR
reported.property: CYP2D6 AC50 (half-maximal activity concentration)

Some compounds with recorded CYP2D6 AC50 (half-maximal activity concentration):
C[C@]12CCC(=O)C=C1CC[C@@H]1[C@@H]2CC[C@]2(C)C(=O)CC[C@@H]12	Inconclusive inhibitor
N#Cc1cc(Br)c(O)c(Br)c1	Inactive
O=S(=O)(c1ccccc1)c1ccccc1	Inactive
O=C(c1ccccc1)C1CCCCC1	Inactive
CC(C)N(Cc1ccccc1)C(=O)C(C)(C)C	Inactive
CCNc1nc(NCC)nc(SC)n1	Inactive
O=C(Cc1ccccc1)c1ccccc1	Inconclusive inhibitor
O=C1NC(=O)c2cccc3cccc1c23 [1H-Benzo[de]isoquinoline-1,3(2H)-dione]	Inactive
CCCCCCCCOc1ccc(C(=O)c2ccccc2)c(O)c1	Inactive

In plain terms, `O=C1OC2(c3ccccc31)c1ccc(O)c(Br)c1Oc1c2ccc(O)c1Br` has a documented CYP2D6 AC50 (half-maximal activity concentration) of Inactive

###

Can you tell me IC50 for the items I'm about to list?
target.entity: human CYP1A2 (Homo sapiens, UniProt P05177)
Sequence (P05177 1-516): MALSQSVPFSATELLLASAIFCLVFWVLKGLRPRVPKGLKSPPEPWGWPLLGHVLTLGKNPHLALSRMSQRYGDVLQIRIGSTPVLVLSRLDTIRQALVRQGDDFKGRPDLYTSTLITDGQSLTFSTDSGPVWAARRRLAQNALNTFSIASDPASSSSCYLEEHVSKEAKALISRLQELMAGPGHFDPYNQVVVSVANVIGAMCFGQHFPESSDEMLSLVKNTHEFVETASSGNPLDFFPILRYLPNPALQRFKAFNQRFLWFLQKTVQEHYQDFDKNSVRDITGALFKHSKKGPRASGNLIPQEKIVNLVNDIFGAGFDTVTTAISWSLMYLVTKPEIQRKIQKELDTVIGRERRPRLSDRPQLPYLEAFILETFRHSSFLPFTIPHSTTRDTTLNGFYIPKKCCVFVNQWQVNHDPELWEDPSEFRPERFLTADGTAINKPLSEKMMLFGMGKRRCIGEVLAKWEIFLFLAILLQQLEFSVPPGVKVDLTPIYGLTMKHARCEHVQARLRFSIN
assay.name: biochemical
test.parameters: CYP1A2 IC50 (half-maximal inhibitory concentration)
Structures can show the parent of a compound that is named as a salt.
One number for each entry, in µM.

Nc1ccc(N)c2c1C(=O)c1ccccc1C2=O	0.35
OC(Cn1cncn1)(c1ccc(F)cc1)c1ccccc1F (stereo not drawn)	35.7
CCOP(=S)(OCC)SCn1c(=O)oc2cc(Cl)ccc21	2.98
Fc1ccc([C@]2(Cn3cncn3)O[C@H]2c2ccccc2Cl)cc1 (racemic)	3.92
CCN(CC)c1nc(C)cc(OP(=S)(OC)OC)n1	1.49
OC(c1ccc(Cl)cc1)(c1ccc(Cl)cc1)C(Cl)(Cl)Cl	8.5
CCCCN1CCCC[C@H]1C(=O)Nc1c(C)cccc1C [Levobupivacaine hydrochloride]	17.4
O=S(=O)(c1ccc(Cl)cc1)c1cc(Cl)c(Cl)cc1Cl	31.9

Pending molecule:
In plain terms, `O=S(=O)(Oc1ccc(Cl)cc1)c1ccc(Cl)cc1` has a documented IC50 of 3.21

###

The listing below reports CYP2C19 AC50 (half-maximal activity concentration) for molecules tested on human CYP2C19 (Homo sapiens, UniProt P33261).
Sequence (P33261 whole entry): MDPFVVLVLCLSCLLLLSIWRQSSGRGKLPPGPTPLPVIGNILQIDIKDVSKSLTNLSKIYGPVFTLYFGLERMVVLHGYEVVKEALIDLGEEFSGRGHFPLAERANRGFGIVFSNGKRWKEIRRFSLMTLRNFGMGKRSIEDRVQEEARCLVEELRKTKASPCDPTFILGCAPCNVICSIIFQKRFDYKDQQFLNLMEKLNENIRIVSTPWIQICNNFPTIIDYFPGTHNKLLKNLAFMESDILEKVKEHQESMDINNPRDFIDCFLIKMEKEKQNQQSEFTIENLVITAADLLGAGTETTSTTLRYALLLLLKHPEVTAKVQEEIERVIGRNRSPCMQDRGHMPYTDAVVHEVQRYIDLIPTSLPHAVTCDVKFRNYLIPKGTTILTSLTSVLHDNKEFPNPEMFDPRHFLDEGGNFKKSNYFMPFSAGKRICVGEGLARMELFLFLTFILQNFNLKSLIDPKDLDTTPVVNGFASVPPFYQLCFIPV
reported.property: CYP2C19 AC50 (half-maximal activity concentration)

N#Cc1c(Cl)cccc1Cl	Inactive
O=C(O)C[C@H](NC(=O)OCc1ccccc1)C(=O)O [N-[(Benzyloxy)carbonyl]-L-aspartic acid]	Inactive
